Data provenance is patent US4094966A.

# System: femoral artery
# MEASUREMENT NOTES: Effect on the femoral rate of flow (peripheral vasodilatation)
# Format: in vivo, mongrels
# MEASUREMENT CONDITIONS: in vivo
MEASURE NAME: Peripheral vasodilatation, femoral rate of flow

INSERT INTO measurements (molecule, readout_value) VALUES
  ('CNC(=O)c1c(I)c(NC(=O)CNC(=O)c2c(I)c(NC(=O)CNC(=O)c3c(I)c(C(=O)NC)c(I)c(N(C)C(C)=O)c3I)c(I)c(N(C)C(C)=O)c2I)c(I)c(C(=O)O)c1I [Compound 17]', '++'),
  ('CNC(=O)c1c(I)c(NC(=O)CNC(=O)c2c(I)c(NC(=O)CNC(=O)c3c(I)c(NC(C)=O)c(I)c(C(=O)NC)c3I)c(I)c(N(C)C(C)=O)c2I)c(I)c(C(=O)O)c1I [Compound 16]', '+'),
  ('CNC(=O)c1c(I)c(C(=O)NCC(=O)Nc2c(I)c(C(=O)O)c(I)c(C(=O)NCCO)c2I)c(I)c(N(C)C(C)=O)c1I [Compound 1]', '+'),
  ('CC(=O)Nc1c(I)c(NC(C)=O)c(I)c(C(=O)O)c1I [d, reference compound]', '+++');

====

# Test system: mice
# MEASUREMENT NOTES: Acute toxicity determination, intravenous toxicity in mice
# Assay type: in vivo, mice (Swiss origin, IOPS mice of OFI strain)
# MEASUREMENT CONDITIONS: 24 hours, 28% I, Mgl salt
Label scheme for Acute toxicity in mice, i.v.: lower than 8 grams I/kg is 0 (no), 8 grams I/kg and above is 1 (yes).

Consider the following illustrative entries.
INSERT INTO assay_data (compound, label) VALUES
  ('CNC(=O)c1c(I)c(NC(=O)CCCNC(=O)c2c(I)c(C(=O)NC)c(I)c(N(C)C(C)=O)c2I)c(I)c(C(=O)O)c1I [Compound 2]', '1 (yes)'),
  ('O=C(CCCCC(=O)Nc1c(I)cc(I)c(C(=O)O)c1I)Nc1c(I)cc(I)c(C(=O)O)c1I [e, reference compound]', '0 (no)'),
  ('CNC(=O)c1c(I)c(C(=O)NCCCCCC(=O)Nc2c(I)cc(I)c(C(=O)O)c2I)c(I)c(N(C)C(C)=O)c1I [Compound 10]', '0 (no)');

Determine whether this compound has Acute toxicity in mice, i.v. no lower than 8 grams I/kg: CC(=O)Nc1c(I)c(C(=O)NCC(=O)Nc2c(I)c(C(=O)O)c(I)c(C(=O)NCCO)c2I)c(I)c(N(C)C(C)=O)c1I [Compound 6]
1 (yes)

Has CNC(=O)c1c(I)c(C(=O)NCC(=O)Nc2c(I)cc(I)c(C(=O)O)c2I)c(I)c(N(C)C(C)=O)c1I [Compound 19] a recorded Acute toxicity in mice, i.v. greater than or equal to 8 grams I/kg?
0 (no)

Could you please find out whether CNC(=O)c1c(I)c(NC(=O)CCCNC(=O)c2c(I)cc(I)c(N(C)C(C)=O)c2I)c(I)c(C(=O)O)c1I [Compound 11] has Acute toxicity in mice, i.v. that meets 8 grams I/kg or exceeds it?
0 (no)

Entry CNC(=O)c1c(I)c(C(=O)NC(C)C(=O)Nc2c(I)cc(I)c(C(=O)O)c2I)c(I)c(N(C)C(C)=O)c1I (stereo not shown) [Compound 23] : is its Acute toxicity in mice, i.v. no less than 8 grams I/kg?
0 (no)

Hello, I need to know if CNC(=O)c1c(I)c(NC(C)=O)c(I)c(C(=O)NCC(=O)N(C)c2c(I)c(C(=O)O)c(I)c(C(=O)NC)c2I)c1I [Compound 14] has measured Acute toxicity in mice, i.v. not below 8 grams I/kg. Thanks!
1 (yes)

Test whether the compound CNC(=O)c1c(I)c(NC(=O)CCCCC(=O)Nc2c(I)c(C(=O)O)c(I)c(C(=O)NC)c2I)c(I)c(C(=O)O)c1I [c, reference compound] records Acute toxicity in mice, i.v. of 8 grams I/kg or higher.
0 (no)

Acute toxicity in mice, i.v. >= 8 grams I/kg for CNC(=O)c1c(I)c(NC(=O)CNC(=O)c2c(I)c(C(=O)NCCO)c(I)c(N(C)C(C)=O)c2I)c(I)c(C(=O)O)c1I [Compound 8] ?
1 (yes)
